Test system: DNA topoisomerase I (Yersinia pestis CO92)
Assay: Yersinia pestis topoisomerase I inhibitors, primary screen, biochemical, cleavage product accumulation, plate reader, single point (AID 504884)
Details: Y. pestis Topo-I cleavage product accumulation, at 10 µM, active compounds read high
Screen size: about 360,000 compounds; about 230 (0.064%) were called active. What follows is part of a selection rich in actives, with near analogues and random picks from the rest.
assayEndpoint: activity (%)
Form entry: value (%) — number only.

Can you look up activity on DNA topoisomerase I (Yersinia pestis CO92) for COc1ccc(C(CCN(Cc2ccc(OC)c(OC)c2)C(=O)CCl)c2ccccc2)cc1 (stereo not given) ?
12.3

Can you look up activity on DNA topoisomerase I (Yersinia pestis CO92) for CCc1cc(-c2n[nH]c(=S)n2CC(C)C)cs1 ?
7.56

Can you look up activity on DNA topoisomerase I (Yersinia pestis CO92) for COc1cc(C(=O)OCCCN2CCOCC2)cc(OC)c1OC ?
-0.169

Can you look up activity on DNA topoisomerase I (Yersinia pestis CO92) for CCOc1ccc(S(=O)(=O)N2CCC(c3ccccc3)CC2)cc1C(=O)O ?
-7.32

Can you look up activity on DNA topoisomerase I (Yersinia pestis CO92) for COC(=O)[C@@H]1C[C@@]2(O)[C@H](O)[C@H](O)[C@H](O)C[C@H]2N1Cc1ccc(C(C)(C)C)cc1 ?
1.65

Can you look up activity on DNA topoisomerase I (Yersinia pestis CO92) for Cc1cccc(OC(=O)c2sc3ncn(C)c(=O)c3c2C)c1 ?
-1.35

Can you look up activity on DNA topoisomerase I (Yersinia pestis CO92) for CCOC(=O)c1[nH]cnc1C(=O)NC1CCCCC1 ?
-3.43

Can you look up activity on DNA topoisomerase I (Yersinia pestis CO92) for CN(Cc1ccc(F)cc1)C(=O)COc1ccc2ccccc2c1 ?
27.3

Can you look up activity on DNA topoisomerase I (Yersinia pestis CO92) for CCOc1ccc(NC(=O)CCC(=O)NNC(=O)NC2CCCCC2)cc1 ?
-4.6

Can you look up activity on DNA topoisomerase I (Yersinia pestis CO92) for Cc1c(NC(=O)C(C)OC(=O)c2c3c(nc4ccccc24)CCC(C)C3)c(=O)n(-c2ccccc2)n1C (stereo not given) ?
3.41

====

Test system: DNA topoisomerase I (Yersinia pestis CO92)
Test: Yersinia pestis topoisomerase I inhibitors, primary screen, biochemical, cleavage product accumulation, plate reader, single point (AID 504884)
Details: Y. pestis Topo-I cleavage product accumulation, at 10 µM
Hit rate of the full screen: of about 360,000 compounds, about 230 (0.064%) were called active. Rule as the data show it: active = activity above about 50% (passing the limit was not always enough); inconclusive = no clear call, values can overlap the other calls. Many of the other results were omitted from the sample, so actives are more common in it than they were.
Pick one: true (active), false (inactive)

Per the assay record, what outcome was assigned to Cc1ccc(CCNC(=O)C2CCN(S(=O)(=O)N3CCCC3)CC2)cc1 ?
false

Per the assay record, what outcome was assigned to ClC1(Cl)CC1CSc1ncn[nH]1 (stereo not given) ?
false

Per the assay record, what outcome was assigned to CS(=O)(=O)c1sc(C(=O)NC(=S)Nc2ccc(OC(F)(F)F)cc2)c2c1C=CCC2 ?
false

Per the assay record, what outcome was assigned to CC1CCCCC1NC(=O)c1cn(C)c2ccc(S(=O)(=O)N3CCOCC3)cc2c1=O (stereo not given) ?
false

Per the assay record, what outcome was assigned to Cc1ccc(S(=O)(=O)N2CCC(C(=O)NCCC3=CCCCC3)CC2)cc1C ?
true

Per the assay record, what outcome was assigned to Cc1ccc2c(c1)C(c1ccccc1)N(C(=O)c1ccc(S(=O)(=O)N3CCOCC3)cc1)CC(=O)N2 (stereo not given) ?
false

Per the assay record, what outcome was assigned to N#Cc1cccc(NC(=O)CCC2CCCC2)c1 ?
false

Per the assay record, what outcome was assigned to CC1CC(C)(C)n2c(O)c(N=NC(N)=S)c3cccc1c32 (stereo not given) ?
false

Per the assay record, what outcome was assigned to Cc1nc(-c2ccc(F)cc2)c(CC(=O)N(C)CC(=O)Nc2c(C)cccc2C)s1 ?
false

Per the assay record, what outcome was assigned to CN(C)c1ccc(C(=S)N2CCN(C(=S)Nc3ccc(Cl)cc3)CC2)cc1 ?
false

====

Tested on: DNA topoisomerase I (Yersinia pestis CO92)
Assay: Yersinia pestis topoisomerase I inhibitors, primary screen, biochemical, cleavage product accumulation, plate reader, single point (AID 504884)
Conditions: Y. pestis Topo-I cleavage product accumulation, at 10 µM, active compounds read high
In all, about 360,000 compounds went through this assay and about 230 (0.064%) were called active. The sample as a whole holds a higher share of actives than the screen did.
Would you mind telling me the reported activity of each entry?
Form entry: value (%) — number only.

I would be grateful if you could share the reported activity for CCCC(C)C(=O)OCC(=O)Nc1c(Br)cc(C)cc1Br (stereo unspecified) .
0.888

I would be grateful if you could share the reported activity for C[C@H](CO)N1C[C@H](C)[C@@H](CN(C)Cc2ccc(-c3ccccc3)cc2)Oc2ccc(NC(=O)Cn3cnnn3)cc2C1=O .
22.5

I would be grateful if you could share the reported activity for CC(=O)Nc1ccc(SC[C@H](Cc2ccccc2)N2CC[C@@H](C)CCC2=O)cc1 .
25.8

I would be grateful if you could share the reported activity for O=C(CN1CCC(NC(=O)C2CC2)CC1)Nc1ccccc1[N+](=O)[O-] .
2.07

I would be grateful if you could share the reported activity for COc1ccc2c(c1)CCc1cn3ncc(C#N)c3nc1-2 .
5.21

I would be grateful if you could share the reported activity for CCN(CC)S(=O)(=O)c1ccc(N2CCOCC2)c(NC(=O)C(C)Oc2ccc(F)cc2)c1 (stereo unspecified) .
18

I would be grateful if you could share the reported activity for O=C(C[n+]1cc(-c2ccc(Cl)c(Cl)c2)n2c1CCC2)c1cccs1 .
5.58

I would be grateful if you could share the reported activity for Cc1ccc(-n2ncc3c(Nc4cccc(C(=O)O)c4)ncnc32)cc1 .
-7.17

I would be grateful if you could share the reported activity for Fc1ccc2cnc(-c3ccccc3)cc2c1 .
5.85

I would be grateful if you could share the reported activity for O=S(=O)(c1ccc(-c2ccno2)s1)N1CCCCC1 .
0.748

I would be grateful if you could share the reported activity for O=C(/C=C/c1cnc2ccccc2n1)NC1CCCCCC1 .
7.03

====

Tested on: DNA topoisomerase I (Yersinia pestis CO92)
Experiment: Yersinia pestis topoisomerase I inhibitors, primary screen, biochemical, cleavage product accumulation, plate reader, single point (AID 504884)
Details: Y. pestis Topo-I cleavage product accumulation, at 10 µM, active compounds read high
The whole screen tested about 360,000 compounds, of which about 230 (0.064%) were called active. The sample holds actives, similar compounds and a random draw of the others, so the mix is not that of the screen.
assayEndpoint: activity

Can you look up activity on DNA topoisomerase I (Yersinia pestis CO92) for CCc1ccccc1NC(=S)Nc1cc(OC)c(NC(=O)C(C)C)cc1OC ?
-1.32% (inactive)

Can you look up activity on DNA topoisomerase I (Yersinia pestis CO92) for CC(C(=O)NC1CCCCC1)N1C(=O)c2cccc3cccc1c23 (configuration not stated) ?
10.7% (inactive)

Can you look up activity on DNA topoisomerase I (Yersinia pestis CO92) for Cc1ccc(CNC(=O)CCS(=O)(=O)c2ccc3c(c2)CC(C)N3C(=O)C2CC2)o1 (configuration not stated) ?
7.23% (inactive)

Can you look up activity on DNA topoisomerase I (Yersinia pestis CO92) for O=C(NC1CCC(O)CC1)c1ccccc1OCc1ccc(F)cc1 (configuration not stated) ?
1.15% (inactive)

Can you look up activity on DNA topoisomerase I (Yersinia pestis CO92) for O=C(O)c1cc(S(=O)(=O)NC2CCCc3ccccc32)ccc1O (configuration not stated) ?
-3.28% (inactive)

Can you look up activity on DNA topoisomerase I (Yersinia pestis CO92) for CC(C)CN(C(=O)Cn1c(=O)cnc2ccccc21)C1CCS(=O)(=O)C1 (configuration not stated) ?
1.02% (inactive)

Can you look up activity on DNA topoisomerase I (Yersinia pestis CO92) for CN(CC(=O)N1CCN(c2ccccc2)CC1)S(=O)(=O)c1cccs1 ?
3.69% (inactive)

Can you look up activity on DNA topoisomerase I (Yersinia pestis CO92) for COc1ccc(CN2CCN(C(=O)c3cc(C4CC4)nn3-c3ccccc3)CC2)cc1F ?
29.4% (inactive)

Can you look up activity on DNA topoisomerase I (Yersinia pestis CO92) for CCOC(=O)/C=C/C(=O)OCC(=O)NC(c1ccccc1)c1ccccc1 ?
7.5% (inactive)

Can you look up activity on DNA topoisomerase I (Yersinia pestis CO92) for CCOc1ccccc1OCC(=O)Nc1ccccc1C(=O)NC1CC1 ?
-3.16% (inactive)

Can you look up activity on DNA topoisomerase I (Yersinia pestis CO92) for CC(NC(=O)c1ccccc1C(=O)O)c1ccc(-n2ccnc2)cc1 (configuration not stated) ?
-18% (inactive)

Can you look up activity on DNA topoisomerase I (Yersinia pestis CO92) for CC(OC(=O)c1ccccc1OCc1ccc(Cl)cc1)C(N)=O (configuration not stated) ?
4.36% (inactive)

Can you look up activity on DNA topoisomerase I (Yersinia pestis CO92) for O=C(NCc1ccccc1)C(c1ccccc1)N(C(=O)c1csnn1)c1ccc(F)cc1 (configuration not stated) ?
26.7% (inactive)

Can you look up activity on DNA topoisomerase I (Yersinia pestis CO92) for COc1cc(OC)cc(-c2cc3nc(C4CCN(C(=O)OC(C)(C)C)CC4)cc(=O)n3[nH]2)c1 ?
2.04% (inactive)

Can you look up activity on DNA topoisomerase I (Yersinia pestis CO92) for CC(=O)c1cccc(OCC(=O)OCC(=O)Nc2cc(S(=O)(=O)N3CCCCC3)ccc2C)c1 ?
29.7% (inactive)

Can you look up activity on DNA topoisomerase I (Yersinia pestis CO92) for O=c1c2ccccc2ncn1CCCCOc1ccccc1F ?
5.21% (inactive)

Can you look up activity on DNA topoisomerase I (Yersinia pestis CO92) for CCc1ccccc1NC(=O)/C(=C/c1ccccc1)c1ccccc1 ?
58.2% (active)

Can you look up activity on DNA topoisomerase I (Yersinia pestis CO92) for CCN(CC)S(=O)(=O)c1ccc(OC(C)C)c(N)c1 ?
9.36% (inactive)

Can you look up activity on DNA topoisomerase I (Yersinia pestis CO92) for CC1Cc2cc(/C(O)=C3\C(=O)C(=O)N(Cc4cccnc4)C3c3ccccc3F)ccc2O1 (configuration not stated) ?
2.42% (inactive)

Can you look up activity on DNA topoisomerase I (Yersinia pestis CO92) for CCN1CCN(c2cc3nc(C)n(Cc4ccccc4)c(=O)c3cc2NC(=O)c2ccccc2F)CC1 ?
23.4% (inactive)

Can you look up activity on DNA topoisomerase I (Yersinia pestis CO92) for O=C(NC(c1ccc(Cl)cc1)P(=O)(Oc1ccccc1)Oc1ccccc1)OCc1ccccc1 (configuration not stated) ?
-6.44% (inactive)

Can you look up activity on DNA topoisomerase I (Yersinia pestis CO92) for Cc1ccn(CC(=O)NC2CCCN(Cc3ccccc3F)C2)n1 (configuration not stated) ?
-8.15% (inactive)

Can you look up activity on DNA topoisomerase I (Yersinia pestis CO92) for CC(C)(C)N(Cc1ccccc1)C(=O)COC(=O)CCc1c[nH]c2ccccc12 ?
1.59% (inactive)

Can you look up activity on DNA topoisomerase I (Yersinia pestis CO92) for CCc1ccccc1NC(=O)CCOc1ccccc1 ?
2.54% (inactive)

Can you look up activity on DNA topoisomerase I (Yersinia pestis CO92) for CCc1ccc(C(=O)OCC(=O)NCC(F)(F)F)cc1 ?
7.38% (inactive)

Can you look up activity on DNA topoisomerase I (Yersinia pestis CO92) for CCN(CCN(C)C)C(=O)c1ccc2nc(C)c(N(C)C(=O)CCc3ccccc3)n2c1 ?
0.0305% (inactive)

Can you look up activity on DNA topoisomerase I (Yersinia pestis CO92) for CCOC(=O)c1nn(-c2cccc(C)c2)cc1C(=O)c1ccccc1 ?
67.3% (active)

Can you look up activity on DNA topoisomerase I (Yersinia pestis CO92) for COc1ccc(CN2CCNC(=O)C2CC(=O)NCc2cn[nH]c2-c2ccccc2)c(F)c1 (configuration not stated) ?
14.5% (inactive)

Can you look up activity on DNA topoisomerase I (Yersinia pestis CO92) for CC(=O)c1ccccc1OCc1ccc(C(=O)c2ccccc2)cc1 ?
55.1% (active)

Can you look up activity on DNA topoisomerase I (Yersinia pestis CO92) for COc1cc([N+](=O)[O-])ccc1NC(=O)COC(=O)CCOc1ccc(C)cc1 ?
-0.7% (inactive)

Can you look up activity on DNA topoisomerase I (Yersinia pestis CO92) for CCCCNC1(C#N)CCN(Cc2ccccc2)CC1 ?
-6.77% (inactive)

Can you look up activity on DNA topoisomerase I (Yersinia pestis CO92) for COc1ccc(S(=O)(=O)NCC2CCCN(C(=O)c3occc3C)C2)cc1 (configuration not stated) ?
0.202% (inactive)

Each recorded value in this set is attributed to PubChem BioAssay AID504884.
